Entries and their measured pEC50 follow.
test target: CFTR G551D mutant (Homo sapiens, UniProt P13569, G551D)
Construct: expressed in transfected cells; host or cells: HEK293 (reverse transfection with plasmids)
Sequence (P13569 whole entry G551D): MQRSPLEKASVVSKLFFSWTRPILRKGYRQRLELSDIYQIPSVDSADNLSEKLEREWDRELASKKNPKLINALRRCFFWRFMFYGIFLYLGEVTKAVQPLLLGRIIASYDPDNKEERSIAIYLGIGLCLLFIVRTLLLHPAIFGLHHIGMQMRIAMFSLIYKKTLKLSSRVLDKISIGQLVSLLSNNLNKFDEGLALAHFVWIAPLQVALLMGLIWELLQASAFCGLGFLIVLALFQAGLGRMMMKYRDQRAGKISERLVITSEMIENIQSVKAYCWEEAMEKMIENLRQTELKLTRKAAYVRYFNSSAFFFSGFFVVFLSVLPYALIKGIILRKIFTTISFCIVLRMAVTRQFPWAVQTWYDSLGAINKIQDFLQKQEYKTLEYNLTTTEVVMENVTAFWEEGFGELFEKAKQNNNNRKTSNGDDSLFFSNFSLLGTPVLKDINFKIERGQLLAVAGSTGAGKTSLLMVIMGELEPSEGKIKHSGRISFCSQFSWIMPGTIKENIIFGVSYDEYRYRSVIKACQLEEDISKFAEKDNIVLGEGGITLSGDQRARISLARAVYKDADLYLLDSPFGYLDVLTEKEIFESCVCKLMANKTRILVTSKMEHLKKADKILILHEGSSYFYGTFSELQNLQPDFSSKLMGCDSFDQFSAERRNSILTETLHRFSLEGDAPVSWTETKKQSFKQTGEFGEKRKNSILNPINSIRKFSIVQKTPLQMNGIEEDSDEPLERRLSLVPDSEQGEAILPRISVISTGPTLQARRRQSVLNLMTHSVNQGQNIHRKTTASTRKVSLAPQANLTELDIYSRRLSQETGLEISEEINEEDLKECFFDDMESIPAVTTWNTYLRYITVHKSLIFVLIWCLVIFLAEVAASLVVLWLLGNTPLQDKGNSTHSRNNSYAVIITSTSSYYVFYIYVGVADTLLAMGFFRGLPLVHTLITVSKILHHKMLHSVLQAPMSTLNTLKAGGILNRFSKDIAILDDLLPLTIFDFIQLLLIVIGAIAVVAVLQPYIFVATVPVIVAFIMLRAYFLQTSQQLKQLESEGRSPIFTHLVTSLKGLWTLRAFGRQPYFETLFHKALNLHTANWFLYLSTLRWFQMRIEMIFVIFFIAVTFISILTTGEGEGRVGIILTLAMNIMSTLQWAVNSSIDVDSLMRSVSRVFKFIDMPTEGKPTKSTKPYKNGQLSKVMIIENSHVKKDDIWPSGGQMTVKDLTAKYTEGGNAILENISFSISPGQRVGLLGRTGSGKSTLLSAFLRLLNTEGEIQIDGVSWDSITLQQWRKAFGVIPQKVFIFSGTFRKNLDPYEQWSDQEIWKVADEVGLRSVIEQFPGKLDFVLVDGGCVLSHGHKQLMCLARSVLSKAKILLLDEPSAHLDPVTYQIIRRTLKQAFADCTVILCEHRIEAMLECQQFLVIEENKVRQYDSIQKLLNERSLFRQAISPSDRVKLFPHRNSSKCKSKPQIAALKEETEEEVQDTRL
assay: YFP-halide influx assay for the CFTR-G551D mutation (HEK293 cells)
Format: cell-based
test settings: HEK293 cells expressing CFTR G551D and YFP reporter; forskolin 10.67 μM; read-out: EC50 measured by YFP-halide influx assay for the CFTR-G551D
pEC50: −log10 of the molar value.
measure name: pEC50

molecule | measure name | endpoint value
CC(O)c1cc(C(=O)Nc2sc3c(c2C(N)=O)CC(C)(C)OC3(C)C)n[nH]1 (centres unmarked) | pEC50 | 5.38
CC1(C)Cc2c(sc(NC(=O)c3cc(C4CC4)[nH]n3)c2C(N)=O)C(C)(C)O1 | pEC50 | 6.70
CC(C)C(CO)C(=O)Nc1sc2c(c1C(N)=O)CC(C)(C)OC2(C)C (centres unmarked) | pEC50 | 5.48
CC(C)C(O)C(=O)Nc1sc2c(c1C(N)=O)CC(C)(C)OC2(C)C (single isomer, unassigned) | pEC50 | 5.26
CC1(C)Cc2c(sc(NC(=O)c3ccc(F)cc3O)c2C(N)=O)C(C)(C)O1 | pEC50 | 7.24
CC1(C)Cc2c(sc(NC(=O)c3ccnn3CC(F)(F)F)c2C(N)=O)C(C)(C)O1 | pEC50 | 6.01
Cc1[nH]nc(C(=O)Nc2sc3c(c2C(N)=O)CC(C)(C)OC3(C)C)c1Cl | pEC50 | 6.57
CC1(C)Cc2c(sc(NC(=O)c3n[nH]cc3C3COCCO3)c2C(N)=O)C(C)(C)O1 (centres unmarked) [Compound 95] | pEC50 | 5.97
CC1(C)Cc2c(sc(NC(=O)c3[nH]ncc3Cl)c2C(N)=O)C(C)(C)O1 | pEC50 | 7.09
CC1(C)Cc2c(sc(NC(=O)c3cccnc3F)c2C(N)=O)C(C)(C)O1 | pEC50 | 5.48
Cc1nc(C(=O)Nc2sc3c(c2C(N)=O)CC(C)(C)OC3(C)C)co1 | pEC50 | 5.48
CC1(C)Cc2c(sc(NC(=O)c3ccn(COP(=O)(O)O)n3)c2C(N)=O)C(C)(C)O1 | pEC50 | 5.48
COCCCc1c[nH]nc1C(=O)Nc1sc2c(c1C(N)=O)CC(C)(C)OC2(C)C | pEC50 | 5.81
CCCCc1ccc(C(=O)Nc2sc3c(c2C(N)=O)CC(C)(C)OC3(C)C)c(=O)[nH]1 | pEC50 | 6.24
CC(C)OCCOc1c[nH]nc1C(=O)Nc1sc2c(c1C(N)=O)CC(C)(C)OC2(C)C | pEC50 | 5.87
CCc1n[nH]c(C(=O)Nc2sc3c(c2C(N)=O)CC(C)(C)OC3(C)C)c1C | pEC50 | 6.45
CC1(C)Cc2c(sc(NC(=O)C3(O)CC3)c2C(N)=O)C(C)(C)O1 | pEC50 | 5.87

* * *

test target: CFTR-R117H (Homo sapiens, UniProt P13569, R117H)
Sequence (P13569 whole entry R117H): as the sequence (P13569 whole entry G551D) above, with R117H, D551G counted along it
assay: YFP-halide influx assay for the CFTR-R117H
test settings: CFTR-R117H mutant; read-out: EC50 measured by YFP-halide influx assay for the CFTR-R117H
pEC50: −log10 of the molar value.

compound | pEC50
CC1(C)Cc2c(sc(NC(=O)[C@H](O)C(C)(C)C)c2C(N)=O)C(C)(C)O1 [Compound 77] | 6.00
CC(C)(C)CC(O)C(=O)Nc1sc2c(c1C(N)=O)CC(C)(C)OC2(C)C (single isomer, unassigned) [Compound 110] | 7.30
CC1(C)Cc2c(sc(NC(=O)c3n[nH]cc3C3=CCOCC3)c2C(N)=O)C(C)(C)O1 [Compound 45] | 5.92
Cc1cn[nH]c1C(=O)Nc1sc2c(c1C(N)=O)CC(C)(C)OC2(C)C [Compound 35] | 6.74

All values here come from patent US9351955B2.
